Source: patent US20060069132A1

tested on: redroot pigweed; assay: Test A pre-/postemergence herbicide test; type: in vivo, Amaranthus retroflexus; conditions: Preemergence, 2000 g ai/ha; visual rating, 0 to 100 scale (0 no effect, 100 complete control)
Exercise: for every item that follows, state its recorded Pigweed plant response rating.
# answer = number (no unit)

Per the record, "C#CCOC(=O)c1cccc(NC(=O)c2cc(C(C)(C)C)nn2C)n1" has Pigweed plant response rating of 30

Per the record, "COC(=O)c1cccc(NC(=O)c2sc(C(C)(C)C)nc2C)c1" has Pigweed plant response rating of 0

Per the record, "CCOC(=O)c1cccc(NC(=O)c2cc(C(C)(C)C)nn2C)n1" has Pigweed plant response rating of 100

Per the record, "C=Cn1nc(C(C)(C)C)cc1C(=O)Nc1cccc(C(C)=NO)c1" has Pigweed plant response rating of 90

Per the record, "CC(=NO)c1cc(NC(=O)c2cc(C(C)(C)C)nn2C)ccc1F" has Pigweed plant response rating of 100

Per the record, "C=Cn1nc(C(C)(C)C)cc1C(=O)Nc1cccc(C(C)=O)c1" has Pigweed plant response rating of 50

Per the record, "CCn1nc(C(C)(C)C)cc1C(=O)Nc1cc(OC)ccc1F" has Pigweed plant response rating of 0
